Hey, just so you know, these numbers are from the supplement of paper PMC10724198.

- Tested on: Saccharomyces cerevisiae
- assay info: protein stability index of tFT-peptide fusion (C-terminal peptide) (PSI (0-1 scale)); higher = more stable (slower turnover)
- measurement conditions: genetic background: wild type; temperature: 37 C
List of protein stability index values.
I'd appreciate a reply containing only the number, no unit.

The sequence TWGGGRVSLGGG , when measured on Saccharomyces cerevisiae, yielded protein stability index of 0.407

---

- System: Saccharomyces cerevisiae
- assay info: protein stability index of tFT-peptide fusion (C-terminal peptide) (PSI (0-1 scale)); higher = more stable (slower turnover)
- measurement conditions: genetic background: cdc53-1; temperature: 37 C
List of protein stability index values.
I'd appreciate a reply containing only the number, no unit.

# chain, observed measurement
rows = [
    ("FFVMVFTVEVFV", 0.0863),
]

// sample PPHRTLLQLRTN , its protein stability index was 0.728

// sample ICQFFFFALLSF , its protein stability index was 0.0674

// sample FFPSFGLFLCPV , its protein stability index was 0.471

// sample WILIGVRFSCFG , its protein stability index was 0.233

// sample WGRAADRRRRLG , its protein stability index was 0.731

// sample CSRVVGLFFLVV , its protein stability index was 0.62

// sample MVVILLVHWEYV , its protein stability index was 0.222

// sample FTLFFVASVLDL , its protein stability index was 0.518

// sample VSLLSLGYVFVY , its protein stability index was 0.27

// sample PFRSAYYLLFLL , its protein stability index was 0.635

// sample IDSEVHLWKRSA , its protein stability index was 0.725

// sample VPIIVVVYVFVT , its protein stability index was 0.247

// sample FSSFLGFIRFFV , its protein stability index was 0.751

---

- System: Saccharomyces cerevisiae
- assay info: protein stability index of tFT-peptide fusion (C-terminal peptide) (PSI (0-1 scale)); higher = more stable (slower turnover)
- measurement conditions: genetic background: wild type; temperature: 30 C
recorded metric: protein stability index
I'd appreciate a reply containing only the number, no unit.

Some solved cases for reference:
# chain, protein stability index
records = [
    ("GGGRWWRVGVGF", 0.729),
    ("VGPRFAYLDVAA", 0.564),
    ("LFHSIPRLLLLK", 0.367),
]

The sequence VFSGGTVRWVGG , when measured on Saccharomyces cerevisiae, yielded protein stability index of 0.702

The sequence AGQNVWGAGTNE , when measured on Saccharomyces cerevisiae, yielded protein stability index of 0.712

The sequence MGHKDDRGFADR , when measured on Saccharomyces cerevisiae, yielded protein stability index of 0.657

The sequence GARVRIRVNDKK , when measured on Saccharomyces cerevisiae, yielded protein stability index of 0.677

The sequence GGGCGMEPGCGP , when measured on Saccharomyces cerevisiae, yielded protein stability index of 0.687

The sequence LVLSFVMLVSGH , when measured on Saccharomyces cerevisiae, yielded protein stability index of 0.289

The sequence VVTEKLKRAARA , when measured on Saccharomyces cerevisiae, yielded protein stability index of 0.669

The sequence VSDMILSATFCM , when measured on Saccharomyces cerevisiae, yielded protein stability index of 0.643

The sequence TGHFSTTPPRPH , when measured on Saccharomyces cerevisiae, yielded protein stability index of 0.714

The sequence PGGCQDPWAALC , when measured on Saccharomyces cerevisiae, yielded protein stability index of 0.714

The sequence QKRKQKKIIQRM , when measured on Saccharomyces cerevisiae, yielded protein stability index of 0.652

---

- Tested on: Saccharomyces cerevisiae
- assay info: protein stability index of tFT-peptide fusion (C-terminal peptide) (PSI (0-1 scale)); higher = more stable (slower turnover)
- measurement conditions: genetic background: wild type; temperature: 30 C
List of protein stability index values.
I'd appreciate a reply containing only the number, no unit.

# chain, recorded metric, observed measurement
records = [
    ("WAGSGCECTGGG", "protein stability index", 0.705),
    ("GVLRGNRITECF", "protein stability index", 0.716),
    ("RVRGDRLGGRGT", "protein stability index", 0.706),
    ("QGSRRPRSVVWG", "protein stability index", 0.708),
    ("KKKKKKKSTKRN", "protein stability index", 0.713),
]

// sample KNQKTTKKKKKI , its protein stability index was 0.543

// sample ISFGSKLPHHLP , its protein stability index was 0.657

// sample STTILIKKKNDK , its protein stability index was 0.684

// sample PSRPAHSPPVPP , its protein stability index was 0.646

// sample ERNEERKATTRS , its protein stability index was 0.726

// sample WVPLGPFCLPLF , its protein stability index was 0.724

---

- Tested on: Saccharomyces cerevisiae
- assay info: protein stability index of tFT-peptide fusion (C-terminal peptide) (PSI (0-1 scale)); higher = more stable (slower turnover)
- measurement conditions: genetic background: wild type; temperature: 30 C
recorded metric: protein stability index
I'd appreciate a reply containing only the number, no unit.

Some solved cases for reference:
# chain, observed measurement
rows = [
    ("AEIISVRQVDQS [GIT1 C-terminal 12 aa]", 0.705),
    ("QMSAMTEKFGKL [YKL068W-A C-terminal 12 aa]", 0.693),
    ("LRASGDDSDPAY [PFA5 C-terminal 12 aa]", 0.687),
    ("TKWHDKFGKLKN [SHE2 C-terminal 12 aa]", 0.68),
    ("NEGSEEEPEIDQ [BDP1 C-terminal 12 aa]", 0.702),
]

Shift focus to the following entry.
The sequence FANKSSSGGDEV [YIL089W C-terminal 12 aa] , when measured on Saccharomyces cerevisiae, yielded protein stability index of 0.672

---

- Tested on: Saccharomyces cerevisiae
- assay info: protein stability index of tFT-peptide fusion (C-terminal peptide) (PSI (0-1 scale)); higher = more stable (slower turnover)
- measurement conditions: genetic background: wild type; temperature: 30 C
List of protein stability index values.

# chain, observed measurement
rows = [
    ("LSSHLHCVTLFT", 0.606),
]

// sample LPVLGSFRLIWL , its protein stability index was 0.626

// sample VKIYPSHGKVRD , its protein stability index was 0.69

// sample FFVSHLLRFAIK , its protein stability index was 0.555

// sample PSPRSFLSIRFL , its protein stability index was 0.581

// sample LDLPFESGIACF , its protein stability index was 0.361

// sample ARGGIGTCSWGW , its protein stability index was 0.743

---

- Test system: Saccharomyces cerevisiae
- assay info: protein stability index of tFT-peptide fusion (C-terminal peptide) (PSI (0-1 scale)); higher = more stable (slower turnover)
- measurement conditions: genetic background: wild type; temperature: 30 C
Grouping rule (protein stability index): range 1 (below 0.2), range 2 (0.2 to below 0.3), range 3 (0.3 or more)

See these solved cases before continuing.
# chain, study target, label
measured = [
    ("FPVWTALLTVRA", "Saccharomyces cerevisiae", "range 1"),
    ("FAVTRVHLACWG", "Saccharomyces cerevisiae", "range 3"),
    ("ALRLPPPPFSLY", "Saccharomyces cerevisiae", "range 2"),
    ("LFFFRLFVFWVF", "Saccharomyces cerevisiae", "range 1"),
    ("TLSRTPVSPSAP", "Saccharomyces cerevisiae", "range 3"),
]

Task item: Please report the category associated with LCVVFCIRTYRV , nothing else.
Reply: range 2

Task item: Please report the category associated with VECVCVVVVRRM , nothing else.
Reply: range 3

Task item: Please report the category associated with TKKGQTRPSRTD , nothing else.
Reply: range 3

Task item: Please report the category associated with GGRWRRRGFFFS , nothing else.
Reply: range 3

---

- System: Saccharomyces cerevisiae
- assay info: protein stability index of tFT-peptide fusion (C-terminal peptide) (PSI (0-1 scale)); higher = more stable (slower turnover)
- measurement conditions: genetic background: wild type; temperature: 30 C
recorded metric: protein stability index
I'd appreciate a reply containing only the number, no unit.

Some solved cases for reference:
# chain, study target, observed measurement
records = [
    ("CFVRCFVSIRLF", "Saccharomyces cerevisiae", 0.0716),
    ("PFARIIDILLVI", "Saccharomyces cerevisiae", 0.315),
    ("MYESIRILVNKV", "Saccharomyces cerevisiae", 0.326),
    ("SWGEQDRLTGYI", "Saccharomyces cerevisiae", 0.674),
    ("LCLPLYIRILSF", "Saccharomyces cerevisiae", 0.129),
    ("LSPLSPLLFRLI", "Saccharomyces cerevisiae", 0.226),
]

Shift focus to the following entry.
// sample REGDLLKFKMRP , its protein stability index was 0.639

---

- System: Saccharomyces cerevisiae
- assay info: protein stability index of tFT-peptide fusion (C-terminal peptide) (PSI (0-1 scale)); higher = more stable (slower turnover)
- measurement conditions: genetic background: das1 deletion; temperature: 37 C
recorded metric: protein stability index
I'd appreciate a reply containing only the number, no unit.

Some solved cases for reference:
# chain, study target, protein stability index
records = [
    ("VVRYGGVIAFRG", "Saccharomyces cerevisiae", 0.725),
    ("VVPWLGYVSCFS", "Saccharomyces cerevisiae", 0.521),
    ("RLIAVAGVVVVA", "Saccharomyces cerevisiae", 0.568),
    ("PWWDALLRARVC", "Saccharomyces cerevisiae", 0.625),
    ("AFLWSLFVFFRF", "Saccharomyces cerevisiae", 0.355),
    ("RLRHPPRLSTLC", "Saccharomyces cerevisiae", 0.739),
    ("GVYFIGISRCVC", "Saccharomyces cerevisiae", 0.669),
    ("FCCFFVHMSFFL", "Saccharomyces cerevisiae", 0.45),
]

The sequence CLLDVVMVVERG , when measured on Saccharomyces cerevisiae, yielded protein stability index of 0.402

The sequence GGGHGSSCSVCD , when measured on Saccharomyces cerevisiae, yielded protein stability index of 0.695

The sequence PPRCLLPPPSRS , when measured on Saccharomyces cerevisiae, yielded protein stability index of 0.693

The sequence ESRDRRVGIANW , when measured on Saccharomyces cerevisiae, yielded protein stability index of 0.77

The sequence GDFYCSSVVLVV , when measured on Saccharomyces cerevisiae, yielded protein stability index of 0.484
